Every entry's value here was drawn from paper PMC9482650.

- subject.of.test: PDLIM1, O00151
- Sequence (O00151 1-87): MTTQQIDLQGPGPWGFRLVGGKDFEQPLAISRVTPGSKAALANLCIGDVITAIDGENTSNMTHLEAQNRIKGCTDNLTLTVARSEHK
- protocol.description: holdup assay
- Parameters: key: below the threshold = too weak to quantify, mostly under pKd 3.1 to 4
- condition.summary: plain residues with an end cap or a label only (N-terminal biotin on a linker: ttds)
measurement.kind: pKd

The cases that follow already have their pKd on record.
# binder, result
measured = [
    ("EMDRRPATVV [PLCB4, Q15147]", "below the threshold"),
    ("PRVKPQRSKV [PPP1R13L, Q8WUF5]", "below the threshold"),
    ("SSLQSLETSV [ATP2B4, P23634]", 3.66),
    ("DKDPHSETAL [TMIGD1, Q6UXZ0]", "below the threshold"),
]

Exercise: Param item = RLPKIKETTV [FRMPD4, Q14CM0] ; retrieve measured pKd.
Key: below the threshold

Exercise: Param item = VDFPPKESSL [ACVR2A, P27037] ; retrieve measured pKd.
Key: 3.24
